src = paper PMC7186840

# Target or system: GII.7 RKI VLPs (Norovirus Hu/GII.7/VLP 05G954/2005/DE)
# Construct: virus-like particles of VP1, arginine tail present; gift of S. Taube
# Test name: STD NMR titration, single saturation time […] s
Reported endpoint: Kd (mM)
State the answer as a number, implicitly in mM.

[in] GET /values?readout=Kd&item= C[C@H](CCC(=O)O)[C@H]1CC[C@H]2[C@@H]3[C@H](O)C[C@@H]4C[C@H](O)CC[C@]4(C)[C@H]3C[C@H](O)[C@]12C [CA, cholic acid]
[out] 10.9

---

# Target or system: GII.4 Saga VLPs (Norovirus Hu/GII-4/Saga4/2006/JP)
# Construct: virus-like particles of VP1, arginine tail present; donated by G. Hansman
# Test name: biochemical
# Set-up: STD NMR titration of norovirus VLPs with cholic acid; apparent KD from initial STD growth rates
Reported endpoint: pKd
Interpret pKd as the negative base-10 log of the concentration measured in mol/L.

[in] Provide value of pKd for this record tested with GII.4 Saga VLPs (Norovirus Hu/GII-4/Saga4/2006/JP): C[C@H](CCC(=O)O)[C@H]1CC[C@H]2[C@@H]3[C@H](O)C[C@@H]4C[C@H](O)CC[C@]4(C)[C@H]3C[C@H](O)[C@]12C
[out] 2.44
